Catalogue of compounds with associated activation (% of control)
Target: Signal transducer and activator of transcription 3 (Homo sapiens)
Assay: STAT3 reporter activation by STAT1 hits, confirmation, counter-screen for STAT1 activator project, U3A cells, luciferase, luminescence (AID 1316);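 also: 0% = no luminescence and 100% = median IL-6 plus DMSO wells; higher means more STAT3 reporter activation so hits are non-selective activators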
Conditions: IL-6, luminescence, at 5.7 µM, stronger effect = higher value, 100 = IL-6 alone, no compound effect, cells lack STAT1
The other results are listed elsewhere or left out.
Readout name: activation (% of control) (%)

- Compound: "CC(=O)c1sc(NC(=O)c2ccc(C)cc2)nc1C"
  Unit annotation: "%"
  Measured value: 94.7
- Compound: "COc1cc(/C=N/O)ccc1OCc1ccc([N+](=O)[O-])cc1"
  Unit annotation: "%"
  Measured value: 123
- Compound: "CC1CN/C(=C\\C(=O)c2ccc(Br)cc2)C(=O)N1 (stereo not drawn)"
  Unit annotation: "%"
  Measured value: 87.3
- Compound: "Cc1ccc2cc3cc(C(=O)N4CCCCCC4)oc3nc2c1"
  Unit annotation: "%"
  Measured value: 137
- Compound: "CC(=O)c1sc(N/N=C/c2ccc(C(C)C)cc2)nc1C"
  Unit annotation: "%"
  Measured value: 110
- Compound: "CCNc1nc(-c2cc3ccccc3o2)cs1"
  Unit annotation: "%"
  Measured value: 103
- Compound: "COc1ccc(NC(=O)/C(Cl)=C(/Cl)S(=O)Cc2ccc(C)cc2)cn1 (stereo not drawn)"
  Unit annotation: "%"
  Measured value: 103
- Compound: "Cc1ccc(NC(=O)Nc2ccc3oc(C)nc3c2)cc1"
  Unit annotation: "%"
  Measured value: 102
- Compound: "CC(C)c1ccc(NC(=O)NC2CCCCC2)cc1"
  Unit annotation: "%"
  Measured value: 129
- Compound: "COc1ccc2nc(NC(=O)c3ccc(Br)s3)sc2c1"
  Unit annotation: "%"
  Measured value: 99.8
- Compound: "CCn1c(/C=C/c2ccc([N+](=O)[O-])o2)nc2ccccc2c1=O"
  Unit annotation: "%"
  Measured value: 102
- Compound: "Cc1cc2nc(SCCN3CCOCC3)[nH]c2cc1C"
  Unit annotation: "%"
  Measured value: 121
- Compound: "CC(=O)Nc1cccc(-c2cnc3ccccc3n2)c1"
  Unit annotation: "%"
  Measured value: 101
- Compound: "Cc1ccc(NC(=O)Nc2ccccc2)c(Br)c1"
  Unit annotation: "%"
  Measured value: 89.8
- Compound: "Cc1cccc(-c2noc(-c3ccc(F)cc3)n2)c1"
  Unit annotation: "%"
  Measured value: 119
- Compound: "Cn1nnc2cc(C(=O)NCCC3=CCCCC3)ccc21"
  Unit annotation: "%"
  Measured value: 119
- Compound: "NC(=O)Cc1ccc2sc(-c3ccccc3)nc2c1"
  Unit annotation: "%"
  Measured value: 108
- Compound: "Cc1ccc(NC(=O)c2csc3c2CCCC3)cc1"
  Unit annotation: "%"
  Measured value: 111

====

Target: Nuclear receptor subfamily 5 group A member 2 (Homo sapiens) (UniProt O00482)
Sequence (O00482 whole entry, looked up): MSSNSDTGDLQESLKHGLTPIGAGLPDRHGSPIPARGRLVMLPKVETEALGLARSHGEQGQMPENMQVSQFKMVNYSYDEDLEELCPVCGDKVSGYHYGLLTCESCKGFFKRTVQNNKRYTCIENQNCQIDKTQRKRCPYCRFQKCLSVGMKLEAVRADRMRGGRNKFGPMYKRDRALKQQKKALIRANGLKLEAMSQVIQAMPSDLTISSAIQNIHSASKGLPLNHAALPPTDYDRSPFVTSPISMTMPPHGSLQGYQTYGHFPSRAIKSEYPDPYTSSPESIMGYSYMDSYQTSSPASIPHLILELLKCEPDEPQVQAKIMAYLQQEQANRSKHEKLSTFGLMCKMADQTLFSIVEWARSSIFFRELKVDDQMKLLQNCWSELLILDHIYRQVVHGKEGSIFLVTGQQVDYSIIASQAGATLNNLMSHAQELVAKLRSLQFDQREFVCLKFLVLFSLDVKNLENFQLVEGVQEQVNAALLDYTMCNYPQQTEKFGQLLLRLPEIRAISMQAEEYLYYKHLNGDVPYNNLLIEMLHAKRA
Test: LRH-1 (NR5A2) inverse agonists, retest, confirmation, cell-based, luminescence (AID 651613);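 also: HEK293T cells co-transfected with LRH-1 and StAR promoter luciferase reporter; 0% = vehicle wells and 100% = parental cells lacking receptor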
Conditions: cell-based LRH-1 luciferase reporter, inverse agonism; at 3.6 µM
Active and inactive are the calls of the source. Rule as the data show it: active = inhibition above about 42%; inactive = the rest.
Classes used: 1 (yes) = active, 0 (no) = inactive

- Compound: "CCOC(=O)c1cc(C#N)c(N2CCCCC2)nc1-c1ccccc1"
  Measurement target: "Nuclear receptor subfamily 5 group A member 2 (Homo sapiens) (UniProt O00482)"
  Assigned category: "1 (yes)"
- Compound: "OCC1OC(n2ccc3c2ncn2ncnc32)C(O)C1O (stereo not given)"
  Measurement target: "Nuclear receptor subfamily 5 group A member 2 (Homo sapiens) (UniProt O00482)"
  Assigned category: "1 (yes)"
- Compound: "Cn1c(=O)c2c(nc(CN3CCOCC3)n2CC(=O)c2ccccc2)n(C)c1=O"
  Measurement target: "Nuclear receptor subfamily 5 group A member 2 (Homo sapiens) (UniProt O00482)"
  Assigned category: "0 (no)"
- Compound: "COC(=O)C1=C(CN2CCCc3ccccc32)NC(=O)NC1c1ccc(F)cc1 (stereo not given)"
  Measurement target: "Nuclear receptor subfamily 5 group A member 2 (Homo sapiens) (UniProt O00482)"
  Assigned category: "0 (no)"
- Compound: "O=C(NCCCc1ccccc1)c1cc([N+](=O)[O-])ccc1Cl"
  Measurement target: "Nuclear receptor subfamily 5 group A member 2 (Homo sapiens) (UniProt O00482)"
  Assigned category: "1 (yes)"

====

Target: Nuclear receptor coactivator 1 (Homo sapiens) (UniProt Q15788)
Sequence (Q15788 whole entry, looked up): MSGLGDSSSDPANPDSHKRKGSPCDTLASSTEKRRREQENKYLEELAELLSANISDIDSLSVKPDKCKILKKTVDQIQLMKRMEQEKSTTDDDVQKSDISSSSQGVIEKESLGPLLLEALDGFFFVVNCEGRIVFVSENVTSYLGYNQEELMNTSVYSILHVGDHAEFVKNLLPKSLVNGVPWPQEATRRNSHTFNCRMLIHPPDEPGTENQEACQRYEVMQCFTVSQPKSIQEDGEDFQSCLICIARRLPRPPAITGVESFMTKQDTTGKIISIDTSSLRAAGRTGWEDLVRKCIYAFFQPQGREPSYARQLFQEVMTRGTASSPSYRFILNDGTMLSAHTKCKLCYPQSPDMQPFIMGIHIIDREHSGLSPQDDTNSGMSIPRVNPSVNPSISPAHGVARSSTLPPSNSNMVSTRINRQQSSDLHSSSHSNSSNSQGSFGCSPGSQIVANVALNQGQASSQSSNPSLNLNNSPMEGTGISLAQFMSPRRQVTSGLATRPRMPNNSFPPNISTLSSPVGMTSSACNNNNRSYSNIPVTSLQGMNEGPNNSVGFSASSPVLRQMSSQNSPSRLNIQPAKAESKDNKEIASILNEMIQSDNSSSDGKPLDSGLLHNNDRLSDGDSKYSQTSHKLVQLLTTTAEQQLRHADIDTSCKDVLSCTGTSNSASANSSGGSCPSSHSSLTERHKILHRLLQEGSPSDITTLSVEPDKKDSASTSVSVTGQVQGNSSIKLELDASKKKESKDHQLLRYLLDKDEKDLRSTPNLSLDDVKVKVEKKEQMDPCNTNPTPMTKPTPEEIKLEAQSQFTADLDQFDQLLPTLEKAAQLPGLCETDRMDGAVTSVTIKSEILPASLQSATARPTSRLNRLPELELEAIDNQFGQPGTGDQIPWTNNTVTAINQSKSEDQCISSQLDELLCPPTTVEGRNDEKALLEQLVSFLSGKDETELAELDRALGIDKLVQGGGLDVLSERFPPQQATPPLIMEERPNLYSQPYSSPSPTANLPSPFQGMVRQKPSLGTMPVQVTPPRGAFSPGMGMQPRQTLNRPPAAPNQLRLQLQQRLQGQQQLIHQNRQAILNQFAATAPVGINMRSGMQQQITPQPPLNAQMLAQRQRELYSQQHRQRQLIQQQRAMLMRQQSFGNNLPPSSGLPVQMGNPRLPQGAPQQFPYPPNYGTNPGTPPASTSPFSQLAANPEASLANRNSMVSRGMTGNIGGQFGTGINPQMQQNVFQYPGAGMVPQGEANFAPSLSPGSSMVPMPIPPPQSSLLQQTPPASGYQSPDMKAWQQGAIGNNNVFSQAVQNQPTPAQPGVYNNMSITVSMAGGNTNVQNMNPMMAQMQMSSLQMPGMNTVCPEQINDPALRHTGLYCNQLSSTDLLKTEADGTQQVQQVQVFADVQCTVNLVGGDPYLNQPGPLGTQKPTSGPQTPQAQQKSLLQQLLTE
Assay: SRC1 coactivator transcriptional activity inhibitors, confirmation, cell-based, luminescence, quadruplicate (AID 588820);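 also: 0% = DMSO wells and 100% = gossypol 36 µM treated wells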
Settings: HEK293 GAL4-SRC1 luciferase reporter, at 3.6 µM, stronger effect = higher value
# Lookup of reported inhibition keyed by entry

- Compound: "CCN(CC)c1ccc(/C=N/Nc2nc3ccccc3[nH]2)c(O)c1"
  inhibition / %: -7.34
- Compound: "CCC(Cc1ccccc1)NC(=O)CCNS(=O)(=O)c1cc(Br)cnc1N (stereo not drawn)"
  inhibition / %: 0.75
- Compound: "Cc1ccc(NC(=O)CN(C(=O)N2CCN(C)CC2)S(=O)(=O)c2ccc(C)cc2)cc1"
  inhibition / %: -4.36
- Compound: "COc1ccc(C(=O)Nc2nc3ccccc3s2)c(OC)c1"
  inhibition / %: 84.7
- Compound: "O=C(N/N=C/c1ccc(O)cc1O)c1ccc(CN2C(=O)c3cccc4cccc2c34)cc1"
  inhibition / %: 78.5
- Compound: "COc1ccc(C(C(=O)NCC2CCCO2)N(Cc2cccs2)C(=O)c2snc(C(N)=O)c2N)cc1 (stereo not drawn)"
  inhibition / %: -52.6
- Compound: "CC(=NNC(=S)N1CCN(C2CCCCCC2)CC1)c1ccccn1"
  inhibition / %: 66.2
- Compound: "COc1cc2c(cc1OC)CN(CC(=O)Nc1cccc([N+](=O)[O-])c1)CC2"
  inhibition / %: 4.85
- Compound: "Cc1cc(C(=O)COC(=O)c2cccnc2Cl)c(C)n1CC1CCCO1 (stereo not drawn)"
  inhibition / %: -18.2
- Compound: "Cn1cc(S(=O)(=O)Nc2ccc(OC(F)(F)F)cc2)c(=O)n(C)c1=O"
  inhibition / %: 6.39
- Compound: "O=S(=O)(NCc1ccncc1)c1ccc(Br)s1"
  inhibition / %: -15.5
- Compound: "O=C(CN1C(=O)COc2ccccc21)Nc1ccccc1F"
  inhibition / %: -26
- Compound: "Cc1ccccc1CN1CC2=C(CCN(Cc3ccccc3)C2=O)N2CCN=C12"
  inhibition / %: 53.7
- Compound: "Cc1ccc(C#N)c(SCc2nnc(-c3ccc(Cl)cc3)o2)n1"
  inhibition / %: 30.4
- Compound: "CCOc1ccc(CCNC(=O)CSCc2ccc(C)cc2)cc1OCC"
  inhibition / %: -18.5
- Compound: "C=CCn1c(C)cc(C(=O)CN2C(=O)c3ccccc3S2(=O)=O)c1C"
  inhibition / %: 77.3
- Compound: "CC(C)C(=O)N1CCN(c2ccc(NC(=O)c3ccc4c(c3)OCCO4)cc2Cl)CC1"
  inhibition / %: -52.5
- Compound: "Cc1cccnc1NC(=O)c1cccc(S(=O)(=O)NCc2ccccc2)c1"
  inhibition / %: -10.8

====

Test: StAR promoter reporter inhibitors, counter-screen for LRH-1 inverse agonist project, cell-based, luminescence, high throughput (AID 651611)
Conditions: StAR promoter luciferase reporter counterscreen, at 3.6 µM
Calls of active or inactive are those of the source. No stated cut-off is given here; in the data, active means inhibition above about 28%; inactive means the rest.
Outcome codes: yes (active), no (inactive)

- Molecule: "CCCc1cc(=O)oc2cc(OCC(=O)NCc3ccccn3)ccc12"
  Assigned category: "no"
- Molecule: "COC(=O)C1(C)Nc2ccccc2C(=O)N1c1ccccc1C (centres undefined)"
  Assigned category: "no"
- Molecule: "COCc1cc(C)n(CC(=O)Nc2ccc(N3CCOCC3)c(Cl)c2)c(=O)c1C#N"
  Assigned category: "no"
- Molecule: "COc1cc2c(cc1OC)C(c1ccc(-c3ccc(Cl)cc3Cl)o1)=NCC2"
  Assigned category: "yes"
- Molecule: "O=C(O)/C=C/C(=O)Nc1ccccc1SC(F)(F)C(F)(F)C(F)(F)F"
  Assigned category: "no"
- Molecule: "COc1ccc(NC(=O)c2sc(=O)n(Cc3cccc(C(F)(F)F)c3)c2C)cc1OC"
  Assigned category: "yes"
- Molecule: "CCOc1ccc(NC(=O)COC(=O)c2ccc3c(c2)OCCO3)cc1"
  Assigned category: "no"
- Molecule: "c1ccc(Oc2nc(-c3cccnc3)nc3ccccc23)cc1"
  Assigned category: "no"
- Molecule: "CCCCOCCCNc1ncnc2c1[nH]c1ccccc12"
  Assigned category: "no"
- Molecule: "Cc1cc(C)nc(NC(=O)c2ccc([N+](=O)[O-])o2)n1"
  Assigned category: "no"
- Molecule: "COc1ccc(OC)c(NC(=O)c2ccccc2NC(=O)c2ccco2)c1"
  Assigned category: "no"
- Molecule: "CN(Cc1cnc2nc(N)nc(N)c2n1)c1ccc(C(=O)N[C@@H](CCC(=O)O)C(=O)O)cc1"
  Assigned category: "yes"
- Molecule: "O=C(CSc1n[nH]c(-c2ccccc2)n1)Nc1ccc(F)cc1F"
  Assigned category: "no"
- Molecule: "O=C1N(c2ccccc2)C[C@@H]2C[C@@H](c3cc4ccccc4o3)N3CCC[C@@]123"
  Assigned category: "yes"
- Molecule: "COCCn1c(SCC(=O)Nc2ccc(C(N)=O)cc2)nc2c([nH]c3ccccc32)c1=O"
  Assigned category: "no"
- Molecule: "NS(=O)(=O)c1ccc(NC(=O)/C=C/c2ccc3c(c2)OCO3)cc1"
  Assigned category: "yes"
- Molecule: "O=C(Nc1cc(Cl)ccc1-n1cncn1)c1ccc([N+](=O)[O-])o1"
  Assigned category: "no"
- Molecule: "CC(=O)NC(c1cccc([N+](=O)[O-])c1)c1ccc2cccnc2c1O (centres undefined)"
  Assigned category: "yes"
- Molecule: "Cc1ccc(C(=O)Nc2sc(C)c(-c3ccccc3)c2C(N)=O)cc1[N+](=O)[O-]"
  Assigned category: "yes"
- Molecule: "COc1cccc(C2c3cc4c(cc3OC(NNC(N)=O)C2C)OCO4)c1O (centres undefined)"
  Assigned category: "no"
- Molecule: "CCOCC(=O)Nc1cccc(C(=O)OCC)c1"
  Assigned category: "no"
- Molecule: "O=c1[nH]cnc2c1nnn2C1OC(CO)C(O)C1O (centres undefined)"
  Assigned category: "yes"
- Molecule: "Nc1nc(F)nc2c1ncn2[C@@H]1O[C@H](CO)[C@@H](O)[C@H]1O"
  Assigned category: "yes"
- Molecule: "CCN1CCS/C1=C\\C=C\\C1=[N+](CC)CCS1"
  Assigned category: "yes"
- Molecule: "CCC(C)n1c(SCC(=O)NCCc2ccc(S(N)(=O)=O)cc2)nc2ccsc2c1=O (centres undefined)"
  Assigned category: "no"
- Molecule: "O=C(Nc1ccccc1)c1oc2ccccc2c1NC(=O)C1CC1"
  Assigned category: "no"
- Molecule: "CN(C)c1ccc(C(=O)OCC(=O)Nc2ccc(N3CCOCC3)cc2)cc1"
  Assigned category: "no"
- Molecule: "CC(=O)NC12CC3CC(C1)CC(C(=O)Nc1nc4ccc(S(C)(=O)=O)cc4s1)(C3)C2"
  Assigned category: "no"
- Molecule: "Nc1ccc(-c2cc3ccccc3oc2=O)cc1"
  Assigned category: "yes"
- Molecule: "COc1ccc(-c2coc3c(C(=O)NCc4ccc(OC)c(OC)c4)cccc23)c(C)c1"
  Assigned category: "yes"
- Molecule: "COC(=O)c1ccc(NC(=O)CN2C(=O)CNC2=O)cc1"
  Assigned category: "no"
- Molecule: "OCCCNc1ncnc2oc(-c3ccccc3)c(-c3ccccc3)c12"
  Assigned category: "no"
- Molecule: "Cc1nnc(SCC(=O)Nc2ccc(Br)cc2)n(N)c1=O"
  Assigned category: "no"
- Molecule: "CC(C)=CC(O)C/C(C)=C/COc1ccc2ccc(=O)oc2c1 (centres undefined)"
  Assigned category: "no"
- Molecule: "CCOc1ccc(NC(=O)COC(=O)c2cc([N+](=O)[O-])ccc2N2CCOCC2)cc1"
  Assigned category: "no"
- Molecule: "O=C1NC(=O)C(c2ccc(F)cc2)N1 (centres undefined)"
  Assigned category: "no"
- Molecule: "Cc1cc(OCC(=O)Nc2cccnc2)c2c(C)c(C)c(=O)oc2c1"
  Assigned category: "no"
- Molecule: "CCCCC(=O)NC(c1ccc(Cl)cc1)c1ccc2cccnc2c1O (centres undefined)"
  Assigned category: "yes"
- Molecule: "O=C(CCl)N1CCN(S(=O)(=O)Cc2ccccc2)CC1"
  Assigned category: "no"

Hey, just so you know, these numbers are from PubChem BioAssay.
